Target Entity: human FXR (NR1H4) (Homo sapiens)
Sequence (Q96RI1 1-486): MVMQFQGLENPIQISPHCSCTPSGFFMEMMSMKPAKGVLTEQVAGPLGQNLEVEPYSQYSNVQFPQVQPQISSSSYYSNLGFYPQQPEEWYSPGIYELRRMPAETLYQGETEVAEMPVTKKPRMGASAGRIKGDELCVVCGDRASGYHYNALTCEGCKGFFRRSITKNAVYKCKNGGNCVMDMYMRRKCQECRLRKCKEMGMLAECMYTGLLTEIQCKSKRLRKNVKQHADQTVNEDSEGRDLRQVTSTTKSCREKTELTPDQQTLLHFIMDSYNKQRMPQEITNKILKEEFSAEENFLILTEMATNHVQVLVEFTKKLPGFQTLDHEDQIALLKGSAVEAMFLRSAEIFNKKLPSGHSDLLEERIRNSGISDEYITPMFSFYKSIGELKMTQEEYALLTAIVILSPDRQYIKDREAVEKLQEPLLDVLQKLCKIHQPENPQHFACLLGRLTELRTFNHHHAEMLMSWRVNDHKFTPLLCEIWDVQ
Procedure Text: Human FXR (NR1H4) Assay (Gal4 promoter driven luciferase reporter, CHO cells)
Assay Setup: FXR reporter assay in CHO cells expressing human NR1H4; 22 hours incubation; potency ranges
pEC50: −log10 of the molar value.
Outcome Measure: pEC50

Record excerpt, results attached:
>>> observed_measurement("O=C(O)c1ccc2nc(N3CCC(OCc4c(-c5c(Cl)cccc5Cl)noc4C4CC4)CC3)sc2c1 [Compound (1), reference compound]")
"> 7.00"
>>> observed_measurement("CN(C)S(=O)(=O)NC(=O)c1ccc2nc(N3CCC(OCc4c(-c5c(Cl)cccc5Cl)noc4C4CC4)CC3)sc2c1 [Example 26]")
"> 7.00"

Asked: I have this molecule here, O=C(NS(=O)(=O)C1CC1)c1ccc2nc(N3CCC(OCc4c(-c5c(Cl)cccc5Cl)noc4C4CC4)CC3)sc2c1 [Example 11] , and I need its recorded pEC50.
Given back: 6.00 to 7.00
